B1: TPR t1 (parent)
chain: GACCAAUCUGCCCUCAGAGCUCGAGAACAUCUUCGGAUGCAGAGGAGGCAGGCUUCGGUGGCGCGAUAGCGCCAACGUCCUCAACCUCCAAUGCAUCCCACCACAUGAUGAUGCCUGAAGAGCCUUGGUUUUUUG

variants of: B1; assay: polymerase ribozyme fitness, log enrichment relative to wild type (log ratio); higher = more active; in vitro selection for triplet polymerase activity
measurement_name: polymerase ribozyme fitness (log ratio)
Answer as a number with no unit attached.

Data request, read-out polymerase ribozyme fitness (log ratio), for C101G
-1.66

Data request, read-out polymerase ribozyme fitness (log ratio), for U112A A118U G135A
1.33

Data request, read-out polymerase ribozyme fitness (log ratio), for C70A G122U
-1.64

Data request, read-out polymerase ribozyme fitness (log ratio), for C13U G51U C79G G127A
-2.92

Data request, read-out polymerase ribozyme fitness (log ratio), for G45C G58C
-0.221

Data request, read-out polymerase ribozyme fitness (log ratio), for C40G U59A C86U A100U
-4.58

Data request, read-out polymerase ribozyme fitness (log ratio), for C34A C72A C102U
-2.07

Data request, read-out polymerase ribozyme fitness (log ratio), for C22A C72A C73A
-5.32

Data request, read-out polymerase ribozyme fitness (log ratio), for A6G A16G G17U A18G G47A G61U
-3.02

Data request, read-out polymerase ribozyme fitness (log ratio), for C8U G117U
-1.38

Okay, next one:
Data request, read-out polymerase ribozyme fitness (log ratio), for A18C G120A
-1.48
